assayed_system: APOBEC3G (A3G) (human, UniProt Q9HC16 1-384)
Sequence (Q9HC16 whole entry): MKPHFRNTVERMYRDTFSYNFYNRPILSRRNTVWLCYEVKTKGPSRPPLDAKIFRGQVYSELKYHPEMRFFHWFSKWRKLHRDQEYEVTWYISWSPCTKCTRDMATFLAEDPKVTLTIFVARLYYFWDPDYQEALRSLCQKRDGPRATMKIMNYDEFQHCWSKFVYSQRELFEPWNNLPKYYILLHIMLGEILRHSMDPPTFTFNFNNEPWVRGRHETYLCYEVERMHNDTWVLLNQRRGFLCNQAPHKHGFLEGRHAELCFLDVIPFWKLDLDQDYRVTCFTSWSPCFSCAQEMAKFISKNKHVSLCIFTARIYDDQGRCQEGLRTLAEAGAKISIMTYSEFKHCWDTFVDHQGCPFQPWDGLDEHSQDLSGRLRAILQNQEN
test_method_notes: competition (fluorescence anisotropy); vs labeled 25 nt Sub ssDNA (N1); 40 mM Tris pH 7.2, 50 mM NaCl, 10 mM MgCl2, 1 mM DTT, 0.1% Triton X-100, 2% glycerol, 37 C 20 min; FA with 2 nM labeled NA; UV cross-linking in 1X PBS, 37 C 20
Reported pIC50 values for a set of binders
// pIC50 is dimensionless: -log10 of concentration (M)

TTATTUUUAAGGATTTATTTATTTA (ssDNA, dU at positions 6-8) [25 nt Sub ssDNA (unlabeled or 32P)]; 7.82

pIC50 lookup needed for UUAUUUUUAAGGAUUUAUUUAUUUA (ssRNA) [25 nt Sub RNA, unlabeled] , thanks.
7.24
